- PROCEDURE_SUMMARY: Thermogravimetry-differential thermal analysis (TG-DTA), weight reduction temperature
- Format: physicochemical
- PROTOCOL_CONDITIONS: weight reduced from initial weight by 5%; 10 Pa; temperature rising rate 10° C./min
READOUT_TYPE: Temperature at TG −5% (weight reduction temperature) (°C)
Numeric only. Scale: °C

Worked examples, 2 compounds total:
c1ccc(N(c2ccc3c(c2)oc2cc4cc5c(cc4cc23)oc2cc(N(c3ccccc3)c3ccc4c6ccccc6n(-c6ccccc6)c4c3)ccc25)c2ccc3c4ccccc4n(-c4ccccc4)c3c2)cc1 [3,10PCA2Nbf(IV)-02] : 398
CCc1cc(CC)cc(-n2c3ccccc3c3ccc(N(c4ccccc4)c4ccc5c(c4)oc4cc6cc7c(cc6cc45)oc4cc(N(c5ccccc5)c5ccc6c8ccccc8n(-c8cc(CC)cc(CC)c8)c6c5)ccc47)cc32)c1 [3,10mmEtPCA2Nbf(IV)-02] : 380

Request: Given the compound CC(C)(C)c1cc(-n2c3ccccc3c3ccc(N(c4ccccc4)c4ccc5c(c4)oc4cc6cc7c(cc6cc45)oc4cc(N(c5ccccc5)c5ccc6c8ccccc8n(-c8cc(C(C)(C)C)cc(C(C)(C)C)c8)c6c5)ccc47)cc32)cc(C(C)(C)C)c1 [3,10mmtBuPCA2Nbf(IV)-02] , write its reported Temperature at TG −5% (weight reduction temperature).
Result: 378

Request: Given the compound CCCCCCc1cc(CCCCCC)cc(-n2c3ccccc3c3ccc(N(c4ccccc4)c4ccc5c(c4)oc4cc6cc7c(cc6cc45)oc4cc(N(c5ccccc5)c5ccc6c8ccccc8n(-c8cc(CCCCCC)cc(CCCCCC)c8)c6c5)ccc47)cc32)c1 [3,10mmHexPCA2Nbf(IV)-02] , write its reported Temperature at TG −5% (weight reduction temperature).
Result: 384

Recorded values, source patent US11917908B2.
